System tested: T1, rat mu opioid receptor MOR-1 (rat, UniProt P33535 1-398)
T1 construct: Full-length receptor expressed from the cDNA in COS-7 cells (membranes), stably in CHO cells (membranes, whole cells) or in Xenopus oocytes; also called rat µ-opioid receptor; cloned rat µ receptor
Test protocol: displacement of 0.25 nM [3H]diprenorphine; membranes of COS-7 cells expressing MOR-1
Measured attribute: IC50 (µM)
Numbers only; they are read as µM.

For the binder shown here, AGCKNFFWKTFTSC (peptide, UniProt P61278 103-116, looked up, mature) [Somatostatin-1-14] , give the reported IC50.
730
